Give IC50 for every item shown.
system: CHO-K1; test: Cytotoxicity against CHOK1 cells assessed as reduction in cell viability incubated for 24 hrs by MTT assay; format: cell-based; conditions: Cricetulus griseus, CHO-K1, 24 h

| CPD SMILES | IC50 |
| --- | --- |
| CCOC(=O)c1nc(C2CCCCC2)sc1-c1ccccc1C#N | > 50 µg/mL |
| CCOC(=O)c1nc(C2CCCCC2)sc1-c1cccc(C#N)c1 | > 50 µg/mL |

Problem: What value of IC50 has been recorded for this entry: CCOC(=O)c1nc(C(C)C)sc1-c1cnc2ccccc2c1
Result: > 50 µg/mL

###

experiment: Selectivity index, ratio of IC50 for CHOK1 cells to MIC for Mycobacterium tuberculosis H37Rv; format: toxicity; settings: hamster, CHO-K1 cells; read-out: Selectivity Index
QUANTITY NAME: selectivity ratio

| CPD SMILES | selectivity ratio |
| --- | --- |
| CCOC(=O)c1nc(C(C)C)sc1-c1cnc2ccccc2c1 | > 12.5 |
| CCOC(=O)c1nc(C2CCCCC2)sc1-c1ccccc1C#N | > 11.9 |

--- query ---
Problem: Which selectivity ratio value belongs to CCOC(=O)c1nc(C2CCCCC2)sc1-c1cccc(C#N)c1 ?
Result: > 11.9
